B1: TPR 5TU (parent)
chain: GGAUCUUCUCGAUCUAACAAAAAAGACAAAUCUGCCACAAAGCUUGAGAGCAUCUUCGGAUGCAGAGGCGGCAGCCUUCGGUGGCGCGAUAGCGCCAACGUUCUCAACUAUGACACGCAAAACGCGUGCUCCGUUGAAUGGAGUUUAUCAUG

# Variants of: B1
# TEST PROTOCOL: polymerase ribozyme fitness, log enrichment relative to wild type (log ratio); higher = more active; in vitro selection for triplet polymerase activity
Variants at the floor of the assay were thinned out.
MEASURED QUANTITY: polymerase ribozyme fitness (log ratio)
Lab note: jot the number down without any unit.

The cases that follow already have their polymerase ribozyme fitness (log ratio) on record.
A22U A30C G81A C116G
-3.8
C51A C57A C87U A98G U146G
-3.12
A3U C96G
-1.47
U53A C76U G83A
-1.6
G42C A60G C75G C105U A122G
-4.18
G58C C72U U101G
0.371
A60G C99U A150C
-4.02
G86U A89C A119C
-3.83
C96A C105U
0.343
G94C C131U
-1.79

**Q:** Need polymerase ribozyme fitness (log ratio) of A52C A73U , thanks.
**A:** -3.14

**Q:** Same again, this time with U56A G58U A97C C99A
**A:** -2.52

**Q:** Same again, this time with U7G A19G
**A:** -2.47

**Q:** Same again, this time with C75G G94C
**A:** -3.53

**Q:** Same again, this time with C10U G84A
**A:** -3.34

**Q:** Same again, this time with C76U G143A
**A:** -1.28

**Q:** Same again, this time with C57G G83A
**A:** -1.02

**Q:** Same again, this time with A21U A22G A60G C132G U144C
**A:** -4.13

**Q:** Same again, this time with U53A A97G A121U C125A
**A:** -1.26

**Q:** Same again, this time with G50C C63G G94C C103A C132U
**A:** -4.08

**Q:** Same again, this time with C76U G84U
**A:** -0.883
